# assayed system: Fuc(a1-2)Gal(b1-4)GlcNAc6S
# measurement protocol: glycan array binding signal (z-score within array); higher = stronger binding
# experimental parameters: glycan notation: IUPAC condensed, linker removed
Only a selection was taken, and the strongest signals are over-represented in it overall.
attribute measured: glycan array binding signal (z-score)

# binder, glycan array binding signal (z-score)
records = [
    ("BC2L-D C-terminal domain (Burkholderia cenocepacia), Q39MQ9_BURS3 (protein) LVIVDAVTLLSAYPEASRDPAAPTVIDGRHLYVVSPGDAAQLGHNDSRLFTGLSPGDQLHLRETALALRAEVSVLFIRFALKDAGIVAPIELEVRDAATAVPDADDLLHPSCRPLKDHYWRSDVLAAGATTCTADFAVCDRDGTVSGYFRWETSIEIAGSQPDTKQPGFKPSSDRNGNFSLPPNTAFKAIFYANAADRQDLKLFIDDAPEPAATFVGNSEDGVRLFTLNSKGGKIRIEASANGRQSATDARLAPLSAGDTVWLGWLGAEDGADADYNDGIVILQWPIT", 0.114),
    ("AFL (Aspergillus fumigatus), Q4WW81 (protein) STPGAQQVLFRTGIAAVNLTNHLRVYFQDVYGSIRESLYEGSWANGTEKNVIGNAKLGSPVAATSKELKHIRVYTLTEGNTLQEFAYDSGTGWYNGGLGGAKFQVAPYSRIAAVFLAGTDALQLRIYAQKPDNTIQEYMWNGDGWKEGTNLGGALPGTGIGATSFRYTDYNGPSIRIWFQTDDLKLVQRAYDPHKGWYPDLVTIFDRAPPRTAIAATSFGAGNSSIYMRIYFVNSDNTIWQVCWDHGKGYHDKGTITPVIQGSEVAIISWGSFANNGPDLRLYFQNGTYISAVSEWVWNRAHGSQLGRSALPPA", 3.17),
]

Next binder, glycan array binding signal (z-score) to be filled in.
Q. Recorded glycan array binding signal (z-score) of CFEM-CGl (Candida glabrata), Q6FRS0 (protein) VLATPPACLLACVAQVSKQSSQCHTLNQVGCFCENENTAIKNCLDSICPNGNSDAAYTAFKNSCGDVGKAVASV , please.
A. -0.397
